- EXPERIMENT: NCI Yeast Anticancer Drug Screen. Data for the mec2-1 strain (AID 157)
- SETUP CONDITIONS: S. cerevisiae mec2-1 strain, at 50.0 µM, stronger effect = higher value
About 79,000 compounds went through this panel and 15% of them were active in at least one assay; those are over-represented in the sample as a whole.
So basically: growth inhibition at 80% or higher? That is True. Lower than 80%? That is False.

| MOLECULE | ASSIGNED CLASS |
| --- | --- |
| CCOC(=O)C(=N\Nc1c(C)cccc1C)/C(C)=N\NC(N)=S | False |
| Cc1c(N=Nc2c(S(=O)(=O)O)cc3cc(S(=O)(=O)O)c(N=Nc4c(C)n(C)n(-c5ccccc5)c4=O)c(O)c3c2O)c(=O)n(-c2ccccc2)n1C | False |
| O=C(N/C(=C/c1ccc(Cl)cc1Cl)c1nc2ccccc2s1)c1ccccc1 | True |
| COc1ccccc1NC(=O)Oc1ccc(C(C)(CCC(=O)O)c2ccc(OC(=O)Nc3ccccc3OC)cc2)cc1 | False |
| NNc1cc(C(F)(F)F)nc2ccccc12 | False |
| COc1cccc(C=O)c1O | False |
| Cc1c(C)c(O)c2c(c1O)C(=O)C=C(Cl)C2=O | True |
| Cn1nc(-c2ccccc2NC(=O)C(F)(F)F)c(=O)n(C)c1=S | False |
| CCc1ccc(C(=O)O)c2ccccc12 | False |
| O=C1OC(CC(=O)c2ccc(Cl)cc2Cl)C(Cl)=C1Cl (stereo not drawn) | False |
| CCCCNc1ncc(OCC)c(NCCCC)n1 | True |
| Clc1ccc2ccc3cccnc3c2n1 | False |
| Cn1c(=O)c2c(ncn2CCCCOc2ccc3c(c2)[n+]([O-])nc(N)[n+]3[O-])n(C)c1=O | False |
| Cc1c(O)/c(=C\O)c2nc3c(=O)ccc(C(=O)NCCN(C)C)c3[nH]c2c1=O | True |
| COc1ccc(/C=C2\CCC(CN3CCOCC3)C2=O)cc1 (stereo not drawn) | True |
| Cc1ccc(/C=N/Nc2ccc([N+](=O)[O-])cc2[N+](=O)[O-])cc1 | False |
| COc1ccc(C2C3CCCC(C(c4ccc(OC)cc4)N2C)C32NC(=O)NC2=O)cc1 (stereo not drawn) | True |
| Cc1ccc(S(=O)(=O)NNc2nc(N3CCOCC3)nc(N3CCOCC3)n2)cc1 | False |
| O=C(Oc1c(Cl)c(Cl)c(Cl)c(Cl)c1Cl)c1ccc(Cl)cc1 | True |
| CN(C)CCC1(C2=CCCC2)CC/C(=C\c2ccc(Cl)cc2)C1=O (stereo not drawn) | True |
| Cc1c(-c2ccccc2)ccnc1/C=N/NC(=S)NCCc1ccccc1 | False |
| Nc1ncnc2c1c(-c1ccccc1)cn2-c1ccc(I)cc1 | False |
